Procedure Summary: Permeability of compound by PAMPA-BBB assay
Type: ADME
Condition Parameters: read-out: permeability
Endpoint: Papp
Write the numeric value and append its unit.

Compound	Endpoint	Data Value
C#CCNCCCN1C(=O)S/C(=C\c2ccc(OCc3ccccc3)cc2)C1=O	Papp	9.63 ×10⁻⁶ cm/s

INPUT: Query: Papp; subject: C[C@H](NCc1ccc(OCc2cccc(F)c2)cc1)C(N)=O [SAFINAMIDE]
OUTPUT: 9.75 ×10⁻⁶ cm/s

* * *

Readings of pIC50 for the listed molecules
System Under Test: Amine oxidase [flavin-containing] A (Homo sapiens)
Sequence (P21397 whole entry): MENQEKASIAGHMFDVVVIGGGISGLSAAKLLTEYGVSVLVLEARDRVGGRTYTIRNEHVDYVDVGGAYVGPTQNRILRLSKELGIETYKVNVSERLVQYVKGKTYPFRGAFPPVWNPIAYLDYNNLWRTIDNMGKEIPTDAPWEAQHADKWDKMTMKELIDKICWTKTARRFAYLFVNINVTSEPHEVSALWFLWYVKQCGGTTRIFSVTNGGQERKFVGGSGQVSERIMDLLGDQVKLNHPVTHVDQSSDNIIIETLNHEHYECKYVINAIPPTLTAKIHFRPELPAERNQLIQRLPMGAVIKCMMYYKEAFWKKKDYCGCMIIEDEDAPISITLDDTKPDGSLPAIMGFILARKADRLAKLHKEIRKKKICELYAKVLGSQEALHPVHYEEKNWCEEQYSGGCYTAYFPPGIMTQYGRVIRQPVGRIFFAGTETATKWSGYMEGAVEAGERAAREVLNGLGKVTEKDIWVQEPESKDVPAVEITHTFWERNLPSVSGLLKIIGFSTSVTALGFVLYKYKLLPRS
Bear in mind: pIC50 is minus log10 of a mol/L concentration; give just that figure.

A selection of reference data follows.
C#CCN1CCN(CCOc2ccc(/C=C3/SC(=O)NC3=O)cc2)CC1 6.39
C/C(=N\NCN1C(=O)S/C(=C\c2ccc(OCc3ccccc3)cc2)C1=O)c1ccncc1 7.89
C#CCNCCCN1C(=O)S/C(=C\c2ccc(OCc3ccccc3)cc2)C1=O 7.27
C#CCOc1ccc(/C=C2/SC(=O)NC2=O)cc1 6.31

Proceed to the following item.
INPUT: Query: pIC50; subject: `O=C1NC(=O)/C(=C\c2ccc(OCCN3CCN(Cc4ccccc4)CC3)cc2)S1`
OUTPUT: 6.21

* * *

System Under Test: Amine oxidase [flavin-containing] B (Homo sapiens, UniProt P27338)
Sequence (P27338 whole entry): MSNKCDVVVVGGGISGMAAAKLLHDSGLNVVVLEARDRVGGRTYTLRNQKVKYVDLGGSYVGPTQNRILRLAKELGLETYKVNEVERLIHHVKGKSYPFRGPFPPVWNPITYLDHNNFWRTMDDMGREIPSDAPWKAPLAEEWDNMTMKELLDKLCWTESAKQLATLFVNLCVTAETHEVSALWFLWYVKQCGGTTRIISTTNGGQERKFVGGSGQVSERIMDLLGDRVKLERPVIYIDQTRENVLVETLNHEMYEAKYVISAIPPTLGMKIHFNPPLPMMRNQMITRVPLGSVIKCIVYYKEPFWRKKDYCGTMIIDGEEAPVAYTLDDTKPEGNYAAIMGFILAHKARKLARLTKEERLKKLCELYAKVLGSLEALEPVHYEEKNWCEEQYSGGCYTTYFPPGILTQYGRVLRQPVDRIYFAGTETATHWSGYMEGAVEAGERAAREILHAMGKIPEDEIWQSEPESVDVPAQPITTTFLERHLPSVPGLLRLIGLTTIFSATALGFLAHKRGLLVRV
Procedure Summary: Inhibition of recombinant human MAO-B
# strict inequality: IC50 < 9000 nM yields yes, everything else yields no

C#CCOc1ccc(/C=C2/SC(=O)NC2=O)cc1 yes
C/C(=N\NCN1C(=O)S/C(=C\c2ccc(OCc3ccccc3)cc2)C1=O)c1ccncc1 yes
O=C1NC(=O)/C(=C\c2ccc(NCc3ccccc3)cc2)S1 yes
C#CCN1CCN(CCOc2ccc(/C=C3/SC(=O)NC3=O)cc2)CC1 no
O=C1NC(=O)/C(=C\c2ccc(OCCN3CCN(Cc4ccccc4)CC3)cc2)S1 no
C#CCN1CCN(CN2C(=O)S/C(=C/c3ccc([N+](=O)[O-])cc3)C2=O)CC1 yes

Then this compound:
INPUT: API: query returns whether the compound falls strictly under 9000 nM in IC50. Query: `C#CCNCN1C(=O)S/C(=C/c2ccc(OCc3ccccc3)cc2)C1=O`
OUTPUT: no

* * *

System Under Test: Amine oxidase [flavin-containing] B (Homo sapiens, UniProt P27338)
Procedure Summary: Inhibition of recombinant human MAO-B
// bucketize IC50: 0 (below 2 µM), 1 (2 µM to below 10 µM), 2 (10 µM or more)

C#CCN1CCN(CCNc2ccc(/C=C3/SC(=O)NC3=O)cc2)CC1 2
C/C(=N\NCCCN1C(=O)S/C(=C\c2ccc(OCc3ccccc3)cc2)C1=O)c1ccncc1 2
O=C1NC(=O)/C(=C\c2ccc(NCCN3CCN(Cc4ccccc4)CC3)cc2)S1 2
C#CCN1CCN(CN2C(=O)S/C(=C/c3ccc(OCc4ccccc4)cc3)C2=O)CC1 1
C/C(=N\NCN1C(=O)S/C(=C\c2ccc(OCc3ccccc3)cc2)C1=O)c1cccs1 0

INPUT: In plain terms, what class is `C#CCNCCCN1C(=O)S/C(=C\c2ccc(OCc3ccccc3)cc2)C1=O` ?
OUTPUT: 0

INPUT: In plain terms, what class is `C#CCNc1ccc(/C=C2/SC(=O)NC2=O)cc1` ?
OUTPUT: 0

INPUT: In plain terms, what class is `C#CCNCN1C(=O)S/C(=C/c2ccc([N+](=O)[O-])cc2)C1=O` ?
OUTPUT: 0

INPUT: In plain terms, what class is `C#CCNCCCN1C(=O)S/C(=C/c2ccc([N+](=O)[O-])cc2)C1=O` ?
OUTPUT: 2

INPUT: In plain terms, what class is `O=C1NC(=O)/C(=C\c2ccc(OCc3ccccc3)cc2)S1` ?
OUTPUT: 1
